- tested.target: Nitric oxide synthase (neuronal, human recombinant) nNOS (Homo sapiens, UniProt P29475)
- Sequence (P29475 whole entry): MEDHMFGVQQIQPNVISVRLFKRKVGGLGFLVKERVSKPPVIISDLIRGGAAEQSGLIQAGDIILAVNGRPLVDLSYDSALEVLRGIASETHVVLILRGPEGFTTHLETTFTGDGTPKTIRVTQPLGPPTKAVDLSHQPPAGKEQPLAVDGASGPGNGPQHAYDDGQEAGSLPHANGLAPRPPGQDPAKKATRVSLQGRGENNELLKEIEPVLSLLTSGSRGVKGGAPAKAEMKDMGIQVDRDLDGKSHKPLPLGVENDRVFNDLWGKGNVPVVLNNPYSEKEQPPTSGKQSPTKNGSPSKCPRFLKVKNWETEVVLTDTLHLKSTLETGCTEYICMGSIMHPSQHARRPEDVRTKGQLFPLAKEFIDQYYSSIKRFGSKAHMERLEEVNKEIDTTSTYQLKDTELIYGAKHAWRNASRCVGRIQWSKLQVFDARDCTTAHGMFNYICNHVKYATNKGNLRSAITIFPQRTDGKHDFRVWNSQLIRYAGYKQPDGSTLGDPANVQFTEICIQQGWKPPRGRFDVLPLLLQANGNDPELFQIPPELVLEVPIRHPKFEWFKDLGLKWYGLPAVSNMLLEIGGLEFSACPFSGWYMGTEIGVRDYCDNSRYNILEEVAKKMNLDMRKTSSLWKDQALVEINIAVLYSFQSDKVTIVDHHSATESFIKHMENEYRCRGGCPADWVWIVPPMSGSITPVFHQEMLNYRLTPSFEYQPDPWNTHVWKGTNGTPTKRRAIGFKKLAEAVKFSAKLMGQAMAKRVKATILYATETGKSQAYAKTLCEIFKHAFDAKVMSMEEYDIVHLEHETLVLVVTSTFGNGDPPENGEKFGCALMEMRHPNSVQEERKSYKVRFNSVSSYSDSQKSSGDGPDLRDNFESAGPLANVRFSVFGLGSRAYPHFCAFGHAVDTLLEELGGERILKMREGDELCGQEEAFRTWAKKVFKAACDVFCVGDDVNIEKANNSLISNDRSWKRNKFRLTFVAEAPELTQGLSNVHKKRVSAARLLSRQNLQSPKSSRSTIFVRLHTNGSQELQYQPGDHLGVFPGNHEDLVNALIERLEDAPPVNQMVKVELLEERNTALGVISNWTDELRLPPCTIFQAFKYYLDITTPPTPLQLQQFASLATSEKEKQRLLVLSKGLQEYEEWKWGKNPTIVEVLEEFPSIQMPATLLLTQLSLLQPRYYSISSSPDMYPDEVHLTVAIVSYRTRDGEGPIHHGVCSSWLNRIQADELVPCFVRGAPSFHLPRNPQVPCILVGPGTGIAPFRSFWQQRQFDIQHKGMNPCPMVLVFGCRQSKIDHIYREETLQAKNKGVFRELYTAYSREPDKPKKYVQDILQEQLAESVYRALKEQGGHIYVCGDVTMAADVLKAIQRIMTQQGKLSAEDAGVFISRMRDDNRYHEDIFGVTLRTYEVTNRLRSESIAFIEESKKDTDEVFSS
- test.name: Human nNOS enzyme assay ([3H]L-arginine to [3H]L-citrulline)
- Assay type: biochemical
- conditions.used: human enzymes; ratio of eNOS IC50 to nNOS IC50
recorded.metric: Selectivity eNOS/nNOS

Use these answered entries as a reference point.
molecule="CC(C)NCCN1CCCc2cc(NC(=N)c3cccs3)ccc21 [Example 61]" recorded_metric="Selectivity eNOS/nNOS" result=116
molecule="CN(C)CCN1C(=O)CCCc2cc(NC(=N)c3cccs3)ccc21 [Example 25]" recorded_metric="Selectivity eNOS/nNOS" result=12.3
molecule="CN(CCO)CCN1CCCc2cc(NC(=N)c3cccs3)ccc21 [Example 62]" recorded_metric="Selectivity eNOS/nNOS" result=492
molecule="CN1CCCC1CCN1CCCc2cc(NC(=N)c3cccs3)ccc21 (single isomer, unassigned) [Example 23]" recorded_metric="Selectivity eNOS/nNOS" result=157
molecule="CNCCN1C(=O)CCc2cc(NC(=N)c3cccs3)ccc21 [Example 34]" recorded_metric="Selectivity eNOS/nNOS" result=115
molecule="CN1CCC(N2CCCc3cc(NC(=N)c4cccs4)ccc32)C1 (single isomer, unassigned) [Example 56]" recorded_metric="Selectivity eNOS/nNOS" result=203

Value sought for every listed molecule: Selectivity eNOS/nNOS.
1. CN(CCO)CCCN1CCCc2cc(NC(=N)c3cccs3)ccc21 [Example 69]
2. N=C(Nc1ccc2c(c1)CCCC(=O)N2CCN1CCCC1)c1cccs1 [Example 26]
3. CN1CCCC1CCN1C(=O)CCc2cc(NC(=N)c3cccs3)ccc21 (stereo not shown) [Example 13]
4. N=C(Nc1ccc2c(c1)CCCCN2CCN1CCCC1)c1cccs1 [Example 27]
5. CN(C)CCN1C(=O)CCCc2cccc(NC(=N)c3cccs3)c21 [Example 33]
6. CCNCCN1CCCc2cc(NC(=N)c3cccs3)ccc21 [Example 60]
7. N=C(Nc1ccc2c(c1)CCC(=O)N2CCCN1CCCCC1)c1cccs1 [Example 9]

(A)
[511, 8.1, 62.6, 138, 90, 135, 12.8]

Origin of values: patent US8173813B2
